System: CV-1
assay.method.text: Cytotoxicity score in the HSV/CV-1 antiviral assay
condition.info: 10 ng/mL, scale 0 (least toxic) to 16 (toxic)
Starred links: 1 amine or outer side, 2 acyl side, 3 side chain; linkers in the order of their positions; H or OH if unused. Positions of bridges follow the written chain, without caps; N, C: chain ends. Non-standard residues stand in square brackets, D forms with d. Residues, ends and D or L forms follow the SMILES beside them. X1 = CC[C@H](C)[C@@H](N[*:1])[C@@H](O)CC(=O)O[C@H](C(=O)[C@H](C)C(=O)[*:2])C(C)C; NMeY = CN[C@@H](Cc1ccc(O)cc1)C(=O)O; dNMeL = CN[C@H](CC(C)C)C(=O)O; pGlu = O=C1CC[C@@H](C(=O)O)N1; Lac = C[C@H](O)C(=O)O
parameter: Cytotoxocity

compound="CC[C@H](C)[C@H]1NC(=O)[C@@H](NC(=O)[C@@H](CC(C)C)N(C)C(=O)[C@@H]2CCCN2C(=O)[C@H](C)OC(=O)[C@H](CCC(N)=O)NC(=O)OCc2ccccc2)[C@@H](C)OC(=O)[C@H](Cc2ccc(OC)cc2)N(C)C(=O)[C@@H]2CCCN2C(=O)[C@H](CC(C)C)NC(=O)[C@@H](C)C(=O)[C@H](C(C)C)OC(=O)C[C@@H]1OC(=O)[C@H](CCC(N)=O)NC(=O)OCc1ccccc1 [Cbz-Gln[Cbz-GlnIst^2]DB (162)]" experimental_target=CV-1 parameter=Cytotoxocity value=0
compound="CC[C@H](C)[C@H]1NC(=O)[C@@H](NC(=O)[C@@H](CC(C)C)N(C)C(=O)[C@@H]2CCCN2C(=O)[C@H](C)OC(=O)[C@@H]2CCC(=O)N2)[C@@H](C)OC(=O)[C@H](Cc2ccc(OC)cc2)N(C)C(=O)[C@@H]2CCCN2C(=O)[C@H](CC(C)C)NC(=O)[C@@H](C)C(=O)[C@H](C(C)C)OC(=O)C[C@@H]1O [pGlu-Didemnin B (39), L-Pyroglutaminyl-didemnin B] ([pGlu][Lac]P[dNMeL]T[X1]LP[NMeY](Me); ester 5-C)" experimental_target=CV-1 parameter=Cytotoxocity value=0
compound=CC[C@H](C)[C@H]1NC(=O)[C@@H](NC(=O)[C@@H](CC(C)C)N(C)C(=O)[C@@H]2CCCN2C(=O)[C@H](C)OC(=O)[C@@H]2CCC(=O)N2C(=O)OCc2ccccc2)[C@@H](C)OC(=O)[C@H](Cc2ccc(OC)cc2)N(C)C(=O)[C@@H]2CCCN2C(=O)[C@H](CC(C)C)NC(=O)[C@@H](C)C(=O)[C@H](C(C)C)OC(=O)C[C@@H]1O experimental_target=CV-1 parameter=Cytotoxocity value=0

----------
assay.method.text: Cytotoxicity of didemnins (Table II)
Format: cell-based
condition.info: Dose 0.25 ng/mL
Starred links: 1 amine or outer side, 2 acyl side, 3 side chain; linkers in the order of their positions; H or OH if unused. Positions of bridges follow the written chain, without caps; N, C: chain ends. Non-standard residues stand in square brackets, D forms with d. Residues, ends and D or L forms follow the SMILES beside them. X1 = CC[C@H](C)[C@@H](N[*:1])[C@@H](O)CC(=O)O[C@H](C(=O)[C@H](C)C(=O)[*:2])C(C)C; NMeY = CN[C@@H](Cc1ccc(O)cc1)C(=O)O; dNMeL = CN[C@H](CC(C)C)C(=O)O; Lac = C[C@H](O)C(=O)O
parameter: Inhibition (%)

molecule=CC[C@H](C)[C@H]1NC(=O)[C@@H](NC(=O)[C@@H](CC(C)C)N(C)C(=O)[C@@H]2CCCN2C(=O)[C@H](C)OC(=O)[C@@H]2CCC(=O)N2C(=O)OCc2ccccc2)[C@@H](C)OC(=O)[C@H](Cc2ccc(OC)cc2)N(C)C(=O)[C@@H]2CCCN2C(=O)[C@H](CC(C)C)NC(=O)[C@@H](C)C(=O)[C@H](C(C)C)OC(=O)C[C@@H]1O parameter="Inhibition (%)" measure_unit=% value=0
molecule="CC[C@H](C)[C@H]1NC(=O)[C@@H](NC(=O)[C@@H](CC(C)C)N(C)C(=O)[C@@H]2CCCN2C(=O)C(C)O)[C@@H](C)OC(=O)[C@H](Cc2ccc(OC)cc2)N(C)C(=O)[C@@H]2CCCN2C(=O)[C@H](CC(C)C)NC(=O)[C@@H](C)C(=O)[C@H](C(C)C)OC(=O)C[C@@H]1O (stereo partly drawn) [Didemnin (B) (2), Didemnin B, reference compound]" parameter="Inhibition (%)" measure_unit=% value=0
molecule="CC[C@H](C)[C@H]1NC(=O)[C@@H](NC(=O)[C@@H](CC(C)C)N(C)C(=O)[C@@H]2CCCN2C(=O)[C@H](C)OC(=O)[C@@H](N)CCC(N)=O)[C@@H](C)OC(=O)[C@H](Cc2ccc(OC)cc2)N(C)C(=O)[C@@H]2CCCN2C(=O)[C@H](CC(C)C)NC(=O)[C@@H](C)C(=O)[C@H](C(C)C)OC(=O)C[C@@H]1O [Gln-Didemnin B, Glutaminyl-didemnin B] (H-Q[Lac]P[dNMeL]T[X1]LP[NMeY](Me); ester 5-C)" parameter="Inhibition (%)" measure_unit=% value=94

Measured values drawn from patent US6841530B2 for this set.
